The reported measurements were obtained from paper PMC8623851.

# maps each entry to its pKi
- target: α1-receptor
- assay_name: Radioligand binding assay: affinity for α1-receptor ([3H]Prazosin, rat cortex)
pKi: −log10 of the molar value.

{"molecule": "CCOc1ccccc1N1CCN(CCCN2C(=O)N/C(=C\\c3cc(OC)c(OC)c(OC)c3)C2=O)CC1", "pKi": 7.83}
{"molecule": "COc1ccc(/C=C2\\NC(=O)N(CCCN3CCN(c4ccccc4OC)CC3)C2=O)cc1", "pKi": 7.46}
{"molecule": "CCOc1ccccc1N1CCN(CC(O)CN2C(=O)N/C(=C\\c3cc(OC)c(OC)c(OC)c3)C2=O)CC1 (stereo not shown)", "pKi": 7.05}
{"molecule": "Cc1ccc(N(CC2=NCCN2)c2cccc(O)c2)cc1 [fentolamine, reference compound]", "pKi": 7.80}
{"molecule": "CCOc1ccccc1N1CCN(CC(O)CN2C(=O)N/C(=C\\c3cccc(OC)c3)C2=O)CC1 (stereo not shown)", "pKi": 7.12}
{"molecule": "CCOc1ccccc1N1CCN(CC(O)CN2C(=O)N/C(=C\\c3ccc(OC)cc3)C2=O)CC1 (stereo not shown)", "pKi": 7.00}
{"molecule": "COc1ccccc1N1CCN(CCCN2C(=O)N/C(=C\\c3cc(OC)c(OC)c(OC)c3)C2=O)CC1", "pKi": 7.59}
{"molecule": "COc1ccc(/C=C2\\NC(=O)N(CC(O)CN3CCN(c4ccccc4F)CC3)C2=O)cc1 (stereo not shown)", "pKi": 6.84}
{"molecule": "COc1ccc(/C=C2\\NC(=O)N(CC(O)CN3CCN(c4ccccc4OC)CC3)C2=O)cc1 (stereo not shown)", "pKi": 6.84}
{"molecule": "COc1ccc(/C=C2\\NC(=O)N(CCCN3CCN(c4ccccc4OC)CC3)C2=O)cc1OC", "pKi": 7.92}
